# SYSTEM TESTED: T1, peptide from the N-terminal coiled-coil region of human ANGPTL4 (hANGPTL4 peptide, SEQ ID NO: 339) (human)
# T1 peptide: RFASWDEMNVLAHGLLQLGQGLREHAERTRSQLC
# EXPERIMENT DESCRIPTION: SPR, captured mAb, 500 nM peptide, 25C
Catalogue of 500 nM hAngPTL4 peptide Bound (RU) readings, one per entry.

The examples below pair each entry with its known result.
BINDER	QUANTITY MEASURED	ENDPOINT VALUE
H4H15343P (antibody, human IgG4, V domains shown, H4H prefix: human IgG4 Fc) VH: QVQLVESGGGVVQPGRSLRLSCAASGFTFSSYGMHWVRQAPGKGLEWVAVISYAGSNKYYADSVKGRFTISRDNSKNTLYLQMNGLRAEDTAVYYCAKDPYGDYEGVLDYWGQGTLVTVSS VL: DIQMTQSPSSLSASVGDRVTITCQASQDISNYLNWYQQKPGKAPKLLIYDASNLETGVPSRFSGSGSGTDFTFTISSLQPEDIATYYCQQYDHLPITFGQGTRLEIK	500 nM hAngPTL4 peptide Bound (RU)	0 RU
H4H15319P (antibody, human IgG4, V domains shown, H4H prefix: human IgG4 Fc) VH: EVQLVESGGGVVRPGGSLRLSCAASGFTVDDYDMSWVRQTPGKGLEWISGINWNGGNTGYADSVKGRFIISRDSAKNSLFLQMNSLRAEDTALYHCWGAIGAFDIWGQGTMVTVSS VL: DIVMTQSPLSSPVTLGQPASISCRSSQSLVHSDGGTYLSWLQQRPGQPPRLLIYKIFNRFSGVPDRFSGSGAGTDFTLRISRVEAEDVGVYYCMQTTQFPLTFGGGTKVEIK	500 nM hAngPTL4 peptide Bound (RU)	0 RU

Below: the item to evaluate.
I have this binder here, H4H15346P (antibody, human IgG4, V domains shown, H4H prefix: human IgG4 Fc) VH: EVQLVESGGGLVQPGGSLRLSCAASGFTFSNYAMSWVRQAPGKGLEWVSTISDTGGSTYYADSVKGRFALSRDNSRNTLYLQMNSLRAEDTAVYYCAKEGPPDYWGQGTLVTVSS VL: EIVLTQSPATLSLSPGERATLSCRTSQSVSIYLAWYQQKPGQAPRLLIYDASKRATGIPARFSGRGSGTDFTLTISSLEPEDFAVYYCQQRSNWPLTFGQGTRLEIK , and I need its recorded 500 nM hAngPTL4 peptide Bound (RU). 0 RU
